B1: E3 ubiquitin-protein ligase NEDD4-like, residues 539 to 589; numbered along this chain, Q96PU5 (parent)
chain: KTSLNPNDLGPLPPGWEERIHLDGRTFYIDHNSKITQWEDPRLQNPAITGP

Variants of: B1
Experiment: abundance fitness (aPCA) (normalised: wild type 0, dead -1); higher = more abundant; growth selection in yeast, the domain comes from the species named
Details: Homo sapiens
Quick rule for you: abundance fitness at -0.01 or higher means true, lower means false.

E17C	false
W38I	false

Q: Confirm if abundance fitness reported for the variant N32M is -0.01 or above.
Ans: false

Q: Consider next the variant I20K in the same way.
Ans: true
